Test system: SR leukemia
PROTOCOL_DESCRIPTION: NCI-60 one-dose screen, 48 h
EXPERIMENTAL_PARAMETERS: 10 µM unless noted
Experimental: Growth inhibition of the SR human tumor cell line is measured as a screen for anti-cancer activity. Cells are grown in 96 well plates and exposed to the test compound for 48 hours. Compounds are tested at a single concentration, which is 10^-5 M for most compounds. The reported endpoint is percent growth (GI% or GIPRCNT), where numbers from 0 - 100% represent growth inhibition, and numbers from -100% - 0 represent cell death. For example, a value of 40 represents 60% growth inhibition. […]
The panel holds about 83,000 compounds, 20% with a hit somewhere; the sample as a whole holds those more often. The source made the active and inactive calls. The calls were made as follows: active = growth percent below 10; inactive = the rest.
Permitted responses: active, inactive

*Q* Entry O=C(CCl)NC1c2ccccc2Oc2ccccc21 : call = ?
*A* inactive

*Q* Entry CCN(CCO)CCNc1ccc(C)c2sc3cc(OC)ccc3c(=O)c12 : call = ?
*A* active

*Q* Entry Cc1cc(CSc2ccc(Cl)cc2)ccc1N : call = ?
*A* inactive

*Q* Entry Clc1ccc(N/N=C(\c2ccccc2)c2ccccn2)nc1 : call = ?
*A* active

*Q* Entry CC(CCN1CCN(CCC(C)CC(C)(C)C)C1CC(C)CC(C)(C)C)CC(C)(C)C (stereo not given) : call = ?
*A* active

*Q* Entry NNC(=O)CNc1ccc2ccccc2c1 : call = ?
*A* inactive

Shift focus to the following entry.
*Q* Entry COc1cc(/C(=C2/O[C@@H]([C@H]3COC(C)(C)O3)[C@H]3OC(C)(C)O[C@@H]23)c2ccc3c(c2)OCO3)cc(OC)c1OC : call = ?
*A* inactive

Where these numbers come from: PubChem BioAssay (NCI)
